Exercise: for every item that follows, state its recorded IC50.
- experimental_target: human ROCKα/ROCKII mix (Homo sapiens, UniProt O75116)
- Construct: purchased Upstate Biotechnology 14-451
- Sequence (O75116 11-552 limits assumed): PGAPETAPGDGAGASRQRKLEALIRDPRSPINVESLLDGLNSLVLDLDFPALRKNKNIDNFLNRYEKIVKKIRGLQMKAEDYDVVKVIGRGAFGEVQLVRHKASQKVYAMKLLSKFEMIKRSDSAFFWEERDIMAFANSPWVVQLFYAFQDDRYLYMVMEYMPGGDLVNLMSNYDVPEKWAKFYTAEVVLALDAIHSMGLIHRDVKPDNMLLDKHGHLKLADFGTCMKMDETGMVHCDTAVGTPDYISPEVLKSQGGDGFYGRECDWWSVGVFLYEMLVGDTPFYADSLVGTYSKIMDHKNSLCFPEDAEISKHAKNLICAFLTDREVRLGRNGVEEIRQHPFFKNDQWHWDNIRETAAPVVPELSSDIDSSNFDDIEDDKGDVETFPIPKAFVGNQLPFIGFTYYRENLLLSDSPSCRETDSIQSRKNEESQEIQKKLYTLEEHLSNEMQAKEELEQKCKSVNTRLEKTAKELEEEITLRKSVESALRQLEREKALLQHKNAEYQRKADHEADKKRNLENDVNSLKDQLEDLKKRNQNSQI
- test_protocol: Biochemical assay for ROCK (fluorescence polarization, ROCK IMAP Kit)

I'd like to know its IC50. The molecule in question is NC(c1ccc(C(=O)Nc2ccncc2)cc1)C1CCCN1C(=O)Cc1cccc(Cl)c1F (stereo not shown)
0.5 to 5 µM

Please give the result for NC(c1ccc(C(=O)Nc2ccncc2)cc1)C1CCCN1C(=O)C1CCOc2ccc(F)cc21 (stereo not shown) too.
0.5 to 5 µM

Record: CN(CC(N)c1ccc(C(=O)Nc2ccncc2)cc1)C(=O)C1CCSc2ccc(F)cc21 (stereo not shown)
5 to 50 µM

Next: Cc1cccc(CC(=O)N2CCCC2C(N)c2ccc(C(=O)Nc3ccncc3)cc2)c1 (stereo not shown)
0.5 to 5 µM

Try this molecule too: NC(c1ccc(C(=O)Nc2ccncc2)cc1)C1CCCN1C(=O)Cc1ccc(Cl)c(Cl)c1 (stereo not shown)
0.5 to 5 µM

Another: Cc1ccccc1CC(=O)N(C)CC(N)c1ccc(C(=O)Nc2ccncc2)cc1 (stereo not shown)
0.5 to 5 µM

Repeat with COc1cccc(CC(=O)N(C)CC(N)c2ccc(C(=O)Nc3ccncc3)cc2)c1 (stereo not shown)
0.05 to 0.5 µM

Please answer likewise for CN(CC(N)c1ccc(C(=O)Nc2ccncc2)cc1)C(=O)Cc1ccc(Cl)cc1Cl (stereo not shown)
0.5 to 5 µM

Same question, CC(C)(C(=O)NC[C@@H](N)c1ccc(C(=O)Nc2ccncc2)cc1)c1ccc(Cl)cc1 this time
0.05 to 0.5 µM

For NC(c1ccc(C(=O)Nc2ccncc2)cc1)C1CCCN1C(=O)Cc1cc(F)ccc1F (stereo not shown) then?
0.5 to 5 µM

# iterate: NC(c1ccc(C(=O)Nc2ccncc2)cc1)C1CCCN1C(=O)Cc1ccc(Cl)cc1F (stereo not shown)
0.5 to 5 µM

What do we get for NC(c1ccc(C(=O)Nc2ccncc2)cc1)C1CCCN1C(=O)Cc1cc(F)cc(F)c1 (stereo not shown) ?
0.5 to 5 µM

Same question, NC(c1ccc(C(=O)Nc2ccncc2)cc1)C1CCCN1C(=O)C1CCc2cc(F)ccc21 (stereo not shown) this time
0.5 to 5 µM

Follow-up entry: CN(CC(N)c1ccc(C(=O)Nc2ccncc2)cc1)C(=O)C1(c2ccc(Cl)c(Cl)c2)CCC1 (stereo not shown)
0.5 to 5 µM

Also NC(CNC(=O)Nc1ccc(Cl)cc1)c1ccc(C(=O)Nc2ccncc2)cc1 (stereo not shown) ?
0.05 to 0.5 µM

Same thing, different molecule: NC(c1ccc(C(=O)Nc2ccncc2)cc1)C1CCCN1C(=O)Cc1c(Cl)cccc1Cl (stereo not shown)
0.5 to 5 µM
